- System: HLA-A*11:01 single chain protein
- Assay type: biochemical, Human
- cond: EASY MHC-I A*11:01, run 2019-08-08, 5min; mean of 2 replicates
measured_metric: EZ_mean
Give the figure only, with no unit attached.

chain_sequence	measured_metric	number
QLIMQLMPFG [TM1024]	EZ_mean	-0.01105
LTSTVQLIMQ [TM1019]	EZ_mean	-0.0385
LIMQLMPFGC [TM1025]	EZ_mean	-0.05365
TVQLIMQLMP [TM1022]	EZ_mean	-0.0531
IMQLMPFGCL [TM1026]	EZ_mean	-0.06176

Challenge: Annotate the sequence VQLIMQLMPF [TM1023] with its measured EZ_mean.
Response given: -0.03531

Challenge: Annotate the sequence STVQLIMQLM [TM1021] with its measured EZ_mean.
Response given: -0.03318

Challenge: Annotate the sequence TSTVQLIMQL [TM1020] with its measured EZ_mean.
Response given: -0.0424
